- Tested on: UO-31 renal
- Assay text: NCI-60 one-dose screen, 48 h (100 = growth as untreated, 0 = no growth, -100 = all killed)
- Condition info: 10 µM unless noted
- Procedure: Growth inhibition of the UO-31 human tumor cell line is measured as a screen for anti-cancer activity. Cells are grown in 96 well plates and exposed to the test compound for 48 hours. Compounds are tested at a single concentration, which is 10^-5 M for most compounds. The reported endpoint is percent growth (GI% or GIPRCNT), where numbers from 0 - 100% represent growth inhibition, and numbers from -100% - 0 represent cell death. For example, a value of 40 represents 60% growth inhibition. […]
The panel holds about 83,000 compounds, 20% with a hit somewhere; the sample as a whole holds those more often.
# growth per entry
Give just the numeric value; % need not be written.

Before answering, review these 5 worked examples.
{"Compound": "NNc1cccc(/C=C/c2ccccc2)cc1=O", "growth, %": 24.9}
{"Compound": "O=C1Nc2ccc3c(c2/C1=C\\c1cc2c(cc1Br)OCO2)OCO3", "growth, %": -15.9}
{"Compound": "CCc1cnc(=S)n(-c2ccccc2)c1", "growth, %": 97}
{"Compound": "COc1ccc(-c2nc(/C=N/Nc3cc(C)nc4ccc(Cl)cc34)c(C)o2)cc1", "growth, %": -98.4}
{"Compound": "COc1ccc(C(=O)n2nc(/C=C/c3ccc(O)c(OC)c3)cc2/C=C/c2ccc(O)c(OC)c2)cc1", "growth, %": -1.75}

So what does the record say about growth for `CCOC(=O)c1ccc2c(c1)c1c(C)c3cccnc3c(C)c1n2C` ?
32

I am curious: what growth value has been reported for Cc1csc(NC(c2ccccc2)c2c(C)nc3ccccn23)n1 (stereo unspecified) ?
76

Form field: reported growth of `CCOC(=O)c1ccc2c(c1)nc(-c1ccc(OCc3ccccc3)c(OC)c1)n2-c1cc(C(C)(C)C)[nH]n1`
67.5

Entry `CN(CCCCN(C[C@H]1Cc2ncccc2CN1)[C@H]1CCCc2cccnc21)C1CCC(F)(F)CC1` has what growth?
67.6

For the compound shown here, CC(O)CN1CCCCC1 (stereo unspecified) , give the reported growth.
86.3

Give the measured growth of `COC(=O)[C@]12CC[C@@H](C)[C@H](C)[C@@H]1C1=CC[C@@H]3[C@@]4(C)C(C=O)=C[C@@](C)(COC(=O)c5ccco5)[C@@H]4[C@H](O)C[C@@]3(C)[C@]1(C)CC2` .
-76.3

* * *

- Tested on: SR leukemia
- Assay text: NCI-60 one-dose screen, 48 h (100 = growth as untreated, 0 = no growth, -100 = all killed)
- Condition info: 10 µM unless noted
The panel holds about 83,000 compounds, 20% with a hit somewhere; the sample as a whole holds those more often.
Assay metric: growth (%)
The reply should contain only the number, in %.

Here are 5 compounds together with their reported answers.
{"Compound": "COc1cc2c(c(OC)c1OC)-c1ccc(N)c(=O)cc1[C@@H](NC(C)=O)CC2", "Study system": "SR leukemia", "growth [%]": 20}
{"Compound": "CN(C)CCCC(C#N)c1ccccc1 (stereo unspecified)", "Study system": "SR leukemia", "growth [%]": 96.2}
{"Compound": "N=C(N)c1ccc(-c2ccc(-c3cncc4ccccc34)s2)cc1F", "Study system": "SR leukemia", "growth [%]": -3.96}
{"Compound": "CCNc1nc(S(=O)(=O)CC)nc2ccccc12", "Study system": "SR leukemia", "growth [%]": 84.5}
{"Compound": "Cc1ccc(S(=O)(=O)n2cc(C(=O)C(=O)N3CCOCC3)c3ccccc32)cc1", "Study system": "SR leukemia", "growth [%]": 77.8}

Endpoint output: growth of `COc1cccc(/C=C2\Oc3cc(OCCCN4CCCC4)ccc3C2=O)c1` . Value?
-22.9

* * *

- Test system: SF-268 CNS
- Assay text: NCI-60 one-dose screen, 48 h (100 = growth as untreated, 0 = no growth, -100 = all killed)
- Condition info: 10 µM unless noted
The panel holds about 83,000 compounds, 20% with a hit somewhere; the sample as a whole holds those more often.
Kindly apply the following: YES if growth is less than 80%, NO in every other case.

# example entries with known answers
{"Molecule": "CCOC(=O)C1=C(C)NC(C)=C(C(=O)OCC)C1(C)C", "Study system": "SF-268 CNS", "Classification": "NO"}
{"Molecule": "Nc1nc(-c2ccccc2)c(CCCOc2ccc(NC(=O)CBr)cc2)c(=O)[nH]1", "Study system": "SF-268 CNS", "Classification": "NO"}
{"Molecule": "C=C(C)[C@@H]1C[C@@H]2Cc3ccc(Cl)c(C)c3N1O2", "Study system": "SF-268 CNS", "Classification": "NO"}
{"Molecule": "COc1cc(-c2nc(N=Nc3c(O)[nH]c4ccc(Br)cc34)[nH]c(=O)c2C#N)cc(OC)c1OC", "Study system": "SF-268 CNS", "Classification": "NO"}
{"Molecule": "C=C1CCC2C3(C)COC(c4ccccc4)OC3CCC2(C)C1/C=C/C1=CCOC1=O (centres undefined)", "Study system": "SF-268 CNS", "Classification": "YES"}
{"Molecule": "CC(C)(C)n1cc(-c2ccnc(NCCCNS(=O)(=O)c3ccc(F)cc3)c2)c(-c2cccc(O)c2)n1", "Study system": "SF-268 CNS", "Classification": "YES"}
{"Molecule": "Nc1cccc(-c2nc3sccn3c2-c2ccnc(NCCCNS(=O)(=O)c3cccc4ccccc34)n2)c1", "Study system": "SF-268 CNS", "Classification": "YES"}
{"Molecule": "O=C(NNC(=S)Nc1ccccc1)c1cc2ccc1CCc1ccc(cc1)CC2", "Study system": "SF-268 CNS", "Classification": "YES"}
{"Molecule": "O=S(=O)(CC(O)(c1ccccc1)c1ccccc1)CC(O)(c1ccccc1)c1ccccc1", "Study system": "SF-268 CNS", "Classification": "NO"}
{"Molecule": "Nc1cc2c(cc1C(=O)c1cccc(F)c1)OCCO2", "Study system": "SF-268 CNS", "Classification": "NO"}

Determine if `COc1cc(-c2nn(-c3cccc(NC(=O)Nc4ccc(Cl)c(Cl)c4)c3)cc2-c2ccncc2)ccc1Cl` shows growth strictly lower than 80%.
YES

Just wondering, is growth of COC(=O)C(Sc1ccc(Cl)cc1)C1SC(=S)N(Cc2ccccc2)C1=O (centres undefined) below 80%?
NO

Does this molecule meet the criterion growth < 80%? COc1cc(C2C3=C(COC3=O)Nc3cc4c(cc32)OCO4)cc2c1OCO2 (centres undefined)
YES

* * *

- Tested on: UACC-257 melanoma
- Assay text: NCI-60 one-dose screen, 48 h (100 = growth as untreated, 0 = no growth, -100 = all killed)
- Condition info: 10 µM unless noted
The panel holds about 83,000 compounds, 20% with a hit somewhere; the sample as a whole holds those more often. Active and inactive are the calls of the source. Rule for the calls: active = growth percent below 10; inactive = the rest.
Assay metric: growth

{"Compound": "O=C(c1ccccc1)c1c(/C=C/c2ccccc2)c2ccccc2[nH]c1=O", "Study system": "UACC-257 melanoma", "growth": "95.6% (inactive)"}
{"Compound": "O=C(CN1CCN(c2cc3c(cc2F)c(=O)c(C(=O)N/N=C/c2ccccc2O)cn3C2CC2)CC1)N/N=C\\c1ccccc1O", "Study system": "UACC-257 melanoma", "growth": "20% (inactive)"}
{"Compound": "N=C(N)c1ccc(-c2cc(Cl)cc(Cl)c2)cn1", "Study system": "UACC-257 melanoma", "growth": "102% (inactive)"}
{"Compound": "Cn1ccc(Nc2nccc(Oc3ccc(C(=O)Nc4cccc(F)c4)c(Cl)c3)n2)c1", "Study system": "UACC-257 melanoma", "growth": "79.5% (inactive)"}
{"Compound": "COc1ccc(C2C=C(c3ccc(OC)c(OC)c3)N=C3SC=C(C)N32)c(Br)c1 (stereo unspecified)", "Study system": "UACC-257 melanoma", "growth": "117% (inactive)"}

What measured growth is associated with `CCOC(=O)NNC(=S)Nc1ccccc1` on UACC-257 melanoma?
102% (inactive)

For the record CSc1nc2c(c(=O)[nH]1)C(c1ccc(C)cc1)C=C(C(=O)O)N2 (stereo unspecified) , what value of growth is listed for UACC-257 melanoma?
110% (inactive)

Value wanted: growth (UACC-257 melanoma) of entry `Clc1ccccc1-c1nc2ccccc2[nH]1`
113% (inactive)

Find the measured growth: item Cc1[nH]c2ccc(F)cc2c1CCNC(=O)C1CCN(C(=O)c2ccccc2)C1 (stereo unspecified) , target or system UACC-257 melanoma.
99.6% [25 µM] (inactive)

API: value(readout= growth, system= UACC-257 melanoma, query= COc1cc(C2C3=C(COC3=O)Nc3cc4c(cc32)CCC4)cc2c1OCO2 (stereo unspecified) )
73.1% (inactive)

Lab request: please report growth under test system UACC-257 melanoma for CC12CCCC(CC(=O)c3[nH]c4ccccc4c31)C2 (stereo unspecified)
66.1% (inactive)

Fill in the recorded growth for this compound, with UACC-257 melanoma as test system: `CC(C)CSc1nc(NN)c(C#N)c(-c2ccc(F)cc2)n1`
105% (inactive)

Notebook: pull reported growth for UACC-257 melanoma, entry COC(=O)C(Sc1ccc(Cl)cc1)C1SC(=S)N(Cc2ccccc2)C1=O (stereo unspecified)
92.2% (inactive)

What reported growth corresponds to `COc1cc(-c2nn(C(=O)NS(=O)(=O)c3ccccc3)cc2-c2ccncc2)ccc1Cl` on UACC-257 melanoma?
89.1% (inactive)

Given the entry C=C1CCC2C(C)(CO)C(O)CCC2(C)C1C/C=C1/C(=O)OCC1Oc1ccccc1C (stereo unspecified) , what growth was observed with UACC-257 melanoma?
83.5% (inactive)

Recorded growth for CC(=O)OC[C@]12CC[C@H]3[C@@H](C[C@H]4O[C@]45CC=CC(=O)[C@]35C)[C@]1(O)CC[C@@]2(O)[C@@](C)(O)C1CC(C)=C(C)C(=O)O1 (stereo partly specified) with UACC-257 melanoma, please?
13.7% (inactive)

Which growth is reported with UACC-257 melanoma for this entry: COc1ccc2c(c1)NC1=C(C(=O)OC1)C2c1cc(OC)c2c(c1)OCO2 (stereo unspecified) ?
71.6% (inactive)

Kindly state the measured growth obtained for `CN1C=CN(Cc2ccc(-c3ccccn3)nc2)[CH-]1.CN1C=CN(Cc2ccc(-c3ccccn3)nc2)[CH-]1.[Au+3]` with UACC-257 melanoma.
2.13% (active)

// map `CC(=O)Nc1ccc(/C=C/C(=O)c2ccccc2)cc1` to recorded growth (system: UACC-257 melanoma)
89.3% (inactive)

Please state recorded growth (tested on UACC-257 melanoma) of `Nc1nnc(-c2ccc3ccccc3c2O)o1`
102% (inactive)

Given the entry COc1ccc(C2C=C(c3ccc(Cl)cc3)N=C3SC=C(C)N32)c(Br)c1 (stereo unspecified) , what growth was observed with UACC-257 melanoma?
39.4% (inactive)
